Could you please report measured binding signal for the items listed next?
Target: OsWRKY34 (Oryza sativa, UniProt Q0JBA9 1-250)
Sequence (Q0JBA9 entry or part of it): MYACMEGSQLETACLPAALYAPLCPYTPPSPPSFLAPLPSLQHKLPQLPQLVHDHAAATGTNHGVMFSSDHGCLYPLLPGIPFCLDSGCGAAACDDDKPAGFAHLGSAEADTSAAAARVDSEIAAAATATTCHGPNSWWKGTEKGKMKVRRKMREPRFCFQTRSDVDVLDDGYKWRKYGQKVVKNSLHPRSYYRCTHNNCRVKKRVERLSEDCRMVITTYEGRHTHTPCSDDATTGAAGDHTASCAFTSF
Assay: protein-binding microarray (RPBM); PBS, 2% BSA, 51.3 ng/ul salmon testes DNA, 50 uM zinc acetate, 200 nM TF, 25 C, 1 h; high values mean tight binding
Conditions: protein: recombinant; tags: N-terminal polyhistidine and DsRed monomer fusion (pET32a); label: CyDye5-dUTP incorporated in the synthesized complementary strand; 3' TTTTT single-stranded linker to array surface; dsDNA, one strand shown
Over roughly 68,000 sequences, “fluorescence intensity (a.u.)” has its median near 9,100; the highest 2% begin near 16,000. What follows is part of a selection rich in the highest values, with near analogues and random picks from the rest.

Challenge: Can you share its binding signal? I mean this sequence: CATATACTCTATCCGTTTCTAAATATTTGACGCCGTTGACCGGAGTCACCTAGTGCAG
Response given: 16200 fluorescence intensity (a.u.)

Challenge: How about ATTTTCATTTGGTTGGTGTGGTTATCTCTTTTTTCATTTACGGAGTCACCTAGTGCAG ?
Response given: 20700 fluorescence intensity (a.u.)

Challenge: How about TCTTGGTTACATGGTGGTTGGTGTTTCATTCTCTTGTTTTCGGAGTCACCTAGTGCAG ?
Response given: 10000 fluorescence intensity (a.u.)

Challenge: How about GTCCCTAAATATTTGACGCCGTTGACTTTTTTAAACATGTCGGAGTCACCTAGTGCAG ?
Response given: 28500 fluorescence intensity (a.u.)

Challenge: How about TCACATCTCATTTTATGTTGGTTTTTTATGGGACGGGAGGCGGAGTCACCTAGTGCAG ?
Response given: 10200 fluorescence intensity (a.u.)

Challenge: How about GGGGTGAACATTTCTTTCTTTCTGGTATTGTGGTTGAGGGCGGAGTCACCTAGTGCAG ?
Response given: 19300 fluorescence intensity (a.u.)

Challenge: How about GAACTTTTCCTGGATGGTGATCCTTCTTTTGGCCTTCTTTCGGAGTCACCTAGTGCAG ?
Response given: 10500 fluorescence intensity (a.u.)

Challenge: How about GAATTGTTGACCACGTGTTTCTGTTTGGACTCCTTTTTTTCGGAGTCACCTAGTGCAG ?
Response given: 16400 fluorescence intensity (a.u.)

Challenge: How about TCAGTTTTTGTTTGCAATGTTTGACCACTCGTCTTATTCACGGAGTCACCTAGTGCAG ?
Response given: 18500 fluorescence intensity (a.u.)

Challenge: How about TTCAGTTTTTGCTTGCAACGTTTGACCACTCGTCTTATTCCGGAGTCACCTAGTGCAG ?
Response given: 15600 fluorescence intensity (a.u.)

Challenge: How about CTCCTCATCCATCCACCACACCACTTGCCTCCAAACAAAACGGAGTCACCTAGTGCAG ?
Response given: 9340 fluorescence intensity (a.u.)

Challenge: How about AGTTGTCCTGCTTTTTTGCTTTCCTAATCTGTTTCCATTTCGGAGTCACCTAGTGCAG ?
Response given: 13300 fluorescence intensity (a.u.)

Challenge: How about TTCCGTTTCTGTTCCGTTTGGTTTTTCCTTGTTCTTTCGGCGGAGTCACCTAGTGCAG ?
Response given: 12900 fluorescence intensity (a.u.)

Challenge: How about TTCTTCTTGGTGGTGGTGGGGCCTGGAAACTATGTGACTTCGGAGTCACCTAGTGCAG ?
Response given: 18200 fluorescence intensity (a.u.)

Challenge: How about AGTGAACTTGGTTCTGTGGTTGCATGTATTTGGTGGAGGGCGGAGTCACCTAGTGCAG ?
Response given: 9170 fluorescence intensity (a.u.)

Challenge: How about GTGGACTTTTTTCCTTCTCCTTTTCCTTTGTGTTGTTTCGCGGAGTCACCTAGTGCAG ?
Response given: 8860 fluorescence intensity (a.u.)

Challenge: How about GGTTTCTTCTCATTCTTCTTTTTTTCCTTTTTTCTACACGCGGAGTCACCTAGTGCAG ?
Response given: 14000 fluorescence intensity (a.u.)

Challenge: How about CCCTCTATAAATGGTTCCTATCACAACCACAAACACCACACGGAGTCACCTAGTGCAG ?
Response given: 8240 fluorescence intensity (a.u.)

Challenge: How about GGTTTCCTCATATGCCCTTGAAAATTTGCTATTCCTCTGTCGGAGTCACCTAGTGCAG ?
Response given: 22700 fluorescence intensity (a.u.)

Challenge: How about TATCTAAATATTTGACGCCGTTGACTTTTTAAAACATGTTCGGAGTCACCTAGTGCAG ?
Response given: 30900 fluorescence intensity (a.u.)

Challenge: How about TAGCTCCAGTATTAATTTCTTTCCATCCTCCATTTTCTTGCGGAGTCACCTAGTGCAG ?
Response given: 9120 fluorescence intensity (a.u.)

Challenge: How about TCTACAAACTTGGTCAAACTTAAAACAGTTTGACTTTGACCGGAGTCACCTAGTGCAG ?
Response given: 14600 fluorescence intensity (a.u.)

Challenge: How about CCTCCTTTGTTCTTGCTCCTCTTTGCACGCAAAGAATCGGCGGAGTCACCTAGTGCAG ?
Response given: 9110 fluorescence intensity (a.u.)

Challenge: How about AATTTTTTTCCTCTCCTGTTTTGTGCCCTTGATATTATGTCGGAGTCACCTAGTGCAG ?
Response given: 13400 fluorescence intensity (a.u.)

Challenge: How about ATATTTGACGCCGTTGACTTTTTTAAACATATTTAACTGTCGGAGTCACCTAGTGCAG ?
Response given: 14600 fluorescence intensity (a.u.)

Challenge: How about CGTCCTTATTGTGGTTTTCCACGTGTTTGTCTCTGTGTTTCGGAGTCACCTAGTGCAG ?
Response given: 13300 fluorescence intensity (a.u.)

Challenge: How about CCTCCGTCCCTAAATATTCGACGCCGTTGACTTTTTTAAACGGAGTCACCTAGTGCAG ?
Response given: 21700 fluorescence intensity (a.u.)

Challenge: How about TTTACATTCATTTCTCTATACGAGCATGGGCCGCACTATACGGAGTCACCTAGTGCAG ?
Response given: 9830 fluorescence intensity (a.u.)

Challenge: How about CTGTCGTGTTTCCTCTGATTAGTTCATACAGCATCTGTTACGGAGTCACCTAGTGCAG ?
Response given: 17600 fluorescence intensity (a.u.)

Challenge: How about TACCACCACTGTTCGTTTCGTTTGTTGGGTTTCGGTCATCCGGAGTCACCTAGTGCAG ?
Response given: 8360 fluorescence intensity (a.u.)

Challenge: How about AGACATTTTTCTTTCTCGTGGATATTTACGCCTTTCTTGACGGAGTCACCTAGTGCAG ?
Response given: 8790 fluorescence intensity (a.u.)

Challenge: How about GGGGTTTCTCATGGGCCAACTATACATTCACACGCGGCCGCGGAGTCACCTAGTGCAG ?
Response given: 17400 fluorescence intensity (a.u.)

Challenge: How about GAGTTTTTACTTTGTAATGTTTGACCACTCGTCTTATTCACGGAGTCACCTAGTGCAG ?
Response given: 8880 fluorescence intensity (a.u.)

Challenge: How about GGTTCAAATTAACTTTTCAATCTTGGCTGTGTTTGGATCCCGGAGTCACCTAGTGCAG ?
Response given: 9630 fluorescence intensity (a.u.)

Challenge: How about GGGGTGGAATTGTGTTGGGTTTCTTTGGTTGAGGAGAGAGCGGAGTCACCTAGTGCAG ?
Response given: 16000 fluorescence intensity (a.u.)

Challenge: How about AGGGATGGTTGGACTTATTTCTTTCGCGTTTTCCTTGGGTCGGAGTCACCTAGTGCAG ?
Response given: 10900 fluorescence intensity (a.u.)

Challenge: How about ATACTTCATCCGTTTCTAAATATTTGATGCCGTTGACTTTCGGAGTCACCTAGTGCAG ?
Response given: 17600 fluorescence intensity (a.u.)

From: paper PMC7819943
